The reader will find reported koff values listed item by item below.
# SYSTEM_UNDER_TEST: T1, human C5 R885C-mmh (human, UniProt P01031 19-1676)
# T1 construct: also called human C5 variant R885C
# PROCEDURE_SUMMARY: SPR, mAb captured via anti-hFc, 37C
# Experimental: Equilibrium dissociation constants (KD values) for C5 binding to purified anti-C5 antibodies were determined using a real-time surface plasmon resonance biosensor assay on a Biacore T200 instrument. […] Human C5 was obtained from a commercial source (EMD). […] Association of all the C5 reagents to each of the captured monoclonal antibodies was monitored for 3 minutes and their dissociation in HBST running buffer was monitored for 8 minutes. […]
Return type: number; implicit unit s⁻¹.

Solved cases below.
H4H11686N (antibody, V domains shown, also called H2M11686N) VH: QVQLVESGGGLVKPGGSLRLSCAASGFTFSDYYMSWIRQAPGKGLEWVSYISSSGNTIKYADSMKGRFTISRDNAKKSLFVEMNSLRAEDTAVYYCARYKSSSDYFDHWGQGTLVTVSS VL: EIVLTQSPATLSLSPGERATLSCRASQSVRSYLAWYQQKPGQAPRLLIYDASNRATAIPARFSGSGSGTDFTLTISSLEPEDLAVYYCQQSGNWPLTFGGGTKVEIK = 0.000791
H4H12161P (antibody, human IgG4, V domains shown, Human IgG4 Fc with S108P hinge mutation (H4H)) VH: EVQLVESGGDLVQPGGSLRLSCAASGFTFSDHYMDWVRQAPGKGLDWIGRIRNKANAYNTEYAASVRGRFTISRDDSQNLLYLQMNSLKTDDTAVYYCVRVWNYAYFAMDVWGQGTTVTVSS VL: DIQMTQSPSSLSASVGDRVTITCRSSQNIGIFLNWYQQKPGEAPNLLISAASSLHSGVPSRFSGSGSGTDFTLTIGSLQPEDFATYYCQQTYNTIFTFGPGTKVDIK = 0.000901
H4H12170P (antibody, human IgG4, V domains shown, Human IgG4 Fc with S108P hinge mutation (H4H)) VH: QVQLVESGGGVVQPGRSLRLSCAASGFTFSGYGMHWVRQAPGKGLEWVALIWLDGSNDYYADSVKGRFTISRDNSKNTLYLQMNRLRAEDTAVYYCARDGPVAAIPDYWGQGTLVTVSS VL: DIQMTQSPSTLSASVGDRVTITCRASQSISRWLAWYQLKPGKAPKLLIYKASSLESGVPSRFSGSGSGTDFTLTISSLQPDDFATYYCQQYNTYSYTFGQGTKLEIK = 0.00087
H4H12159P (antibody, human IgG4, V domains shown, Human IgG4 Fc with S108P hinge mutation (H4H)) VH: QVQLVESGGGVVQPGRSLRLSCGASGFTFSTYGMHWVRQAPGKGLEWVAVIWDDGNNKYYADSVKGRFTISRDNSKNTLYLQMNSLRAEDTAVYYCARDSEVAPVGDYWGQGTLVTVSS VL: DIQMTQSPSTLSASVGDRVTIICRASQSINRWLAWYQQKPGKAPKLLIYKASSLESGVPSRFSGSGSGTEFTLTISSLQPDDFAAYYCQQYNDYSYTFGQGTKLEIK = 0.000975

Next item in the queue.
Lab note: H4H12175P (antibody, human IgG4, V domains shown, Human IgG4 Fc with S108P hinge mutation (H4H)) VH: EVQLVESGGGVVQPGGSLRLSCAASGFTFNDYAMHWVRQAPGKGLEWVSLISGDGGNTYYADSVKGRLTISRDNSKNSLYLQMNSLRTEDTALYYCAKDKGWNFGYFDLWGRGTLVTVSS VL: DIQMTQSPSSLSTSVGDRVTITCRASQNIDTYLNWYQQKPGKAPKLLIYDASSLQSGVPSRFSGSGSGTDFTLTITSLQPEDFATYYCQQNDNILHPLTFGGGTKVEIK gave koff of 0.0179
